Each record here notes measured neutralization IC50.
# system-name: Env of HIV-1 strain 3415.v1.c1 (HIV-1)
# procedure-details: cell-based or functional assay

Guide cases for neutralization IC50, answers given:
γ8κ3 (antibody, V domains shown) VH: QIHLVQSGTGVKKPGSSVTVSCKAYGVNTFGLYAVNWVRQAPGQGLEYIGQIWRWKSSASHHFRGRVLISAVDLTGSSPPITSLEIKNVTSDDTAVYFCTTTSTYDKWSGLYHDGVMAFSSWGQGTLISVSA VL: DIQMTQSPSTLSASIGDTVRISCRASQSITGNWLAWYHQRPGKAPRLLIYRGSRLLGGVPSRFSGSAAGTDFTLTIANLQAEDFGTFYCQQYDTYPGTFGQGTKVEVKR; > 15 µg/mL
γ44κ61 (antibody, V domains shown) VH: QIHLVQSGTEVKKPGSSVTVSCKAYEVNTFGLYAVNWVRQAPGQSLEYIGQIWRWKSSASHHFRGRVLISAVDLTGSSPPISSLEIKNVTSDDTAVYFCTTTSTHDKWSGLHHDGVMAFSSWGQGTLISVSA VL: DIQMTQSPSTLSASIGDTVRISCRASQSITGNWVAWYHQRPGKAPRLLIYRGAALLGGVPSRFSGSAAGTDFTLTIGNLQAEDFGTFYCQQYDTYPGTFGQGTKVEVKR; > 15 µg/mL

Data request: Identify measured neutralization IC50 associated with γ20κ18 (antibody, V domains shown) VH: QIHLVQSGTEVKKPGSSVAVSCKAYGVNTFGLYAVNWVRQAPGQSLEYIGQIWRWKSSASHDFRGRVIISAVDLTGSSPPISSLEIKNLTSDDTAVYFCTATSTPDYWSGLHHDGVMAFSSWGQGTLISVSA VL: DIQMTQSPSTLSASVGDTVRISCRASQSITGGWLAWYHQRPGKAPRLLIYRGSRLLGGVPSRFSGSAAGADFTLTIANLQAEDFGTFYCQQYDTYPGTFGQGTKVEVKR
Data returned: > 15 µg/mL
